Data provenance: patent US20170267766A1

Test Target: T1, monkey IGF-1R (on COS-7 cells) (African green monkey)
T1 construct: whole, on cells
Assay Summary: FACS titration, Cos-7
Reported Metric: pEC50
Hey, just a heads up that pEC50 is the negative log base 10 of the concentration in molar.

INSERT INTO assay_data (binder, result) VALUES
  ('hz208F2 H076/L021 (antibody, human IgG1, kappa, V domains shown, humanized 208F2 variant) VH: QVQLVQSGAEVKKPGASVKVSCKASGYTFTSYYIHWVRQAPGQGLEWMGWIWPGDGSTKYAQKFQGRVTMTRDTSTSTVYMELSSLRSEDTAVYYCASPMITPNYAMDYWGQGTLVTVSS VL: DIQMTQSPSSLSASVGDRVTITCRASQDISKYLNWYQQKPGKAPKLLIYYTSRLHSGVPSRFSGRGSGTDFSLTISSLQPEDFATYFCQQGSTLPYTFGGGTKVEIKR', 8.96);

For the next question, use this binder.
## Input I have this binder here, hz208F2 H077/L018 (antibody, human IgG1, kappa, V domains shown, humanized 208F2 variant) VH: QVQLVQSGAEVKKPGASVKVSCKASGYTFTSYYIHWVRQAPGQGLEWMGWIWPGDGSTKYAQKFQGRVTMTRDTSTSTVYMELSSLRSEDTAVYFCASPMITPNYAMDYWGQGTLVTVSS VL: DIQMTQSPSSLSASVGDRVTITCRASQDISKYLNWYQQKPGKAPKLLIYYTSRLQSGVPSRFSGRGSGTDYSLTISSLQPEDFATYFCQQGSTLPYTFGGGTKVEIKR , and I need its recorded pEC50.
## Output 8.96
